Aspergillus fumigatus (ATCC-204305): reported MIC for various molecules.
Give a bare numeral; the unit µg/mL is implied.

Cc1cc(-c2ccccc2)c(C(=O)C(=O)Nc2ccc3c(c2)C[C@H]2CN(c4ncc(F)cn4)CCN32)n1C [Example 33] ... 0.016
Cc1cc(-c2ccccc2)c(C(=O)C(=O)Nc2cc(F)c3c(c2)OCC2CN(c4ncc(F)cn4)CCN32)n1C (centres unmarked) [Example 4] ... 0.016
Cc1cc(-c2ccccc2)c(C(=O)C(=O)Nc2cc(F)c3c(c2)OC[C@H]2CN(c4ncc(F)cn4)CCN32)n1C [Example 5] ... 0.016
Cc1cc(-c2ccccc2F)c(C(=O)C(=O)Nc2ccc3c(c2)OC[C@H]2CN(c4ncc(F)cn4)CCN32)n1C [Example 35] ... 0.016

Reading of MIC for Cc1cc(-c2ccccc2)c(C(=O)C(=O)Nc2ccc(N3CCN(c4ncc(F)cn4)CC3)cc2)n1C [Example F901318, reference compound] with Aspergillus fumigatus (ATCC-204305): 0.016

MIC for Aspergillus fumigatus (ATCC-204305) with input Cc1cc(-c2ccccc2)c(C(=O)C(=O)Nc2ccc3c(c2)C[C@@H]2CN(c4ncc(F)cn4)CCN32)n1C [Example 34] equals 0.03

Reading of MIC for Cc1cc(-c2ccccc2)c(C(=O)C(=O)Nc2ccc3c(c2)CCC2CN(c4ncc(F)cn4)CCN32)n1C (centres unmarked) [Example 32] with Aspergillus fumigatus (ATCC-204305): 0.03

Record Cc1cc(-c2ccccc2)c(C(=O)C(=O)Nc2ccc3c(c2)OCC2CN(c4ncc(F)cn4)CCN32)n1C (centres unmarked) [Example 3] ; system Aspergillus fumigatus (ATCC-204305); MIC = 0.016

====

- TEST: Pharmacokinetic test in SD rats, single oral administration
- Assay type: in vivo
- EXPERIMENTAL SETUP: SD, rat, plasma, po, 10 mg/kg, single oral administration 10 mg/kg, test compound mixed with F901318, plasma, read-out: AUC
Answer N if AUC is under 20000 ng·h/mL, and Y if it is 20000 ng·h/mL or more.

Cc1cc(-c2ccccc2)c(C(=O)C(=O)Nc2ccc3c(c2)OCC2CN(c4ncc(F)cn4)CCN32)n1C (stereo not drawn) ... N
Cc1cc(-c2ccccc2F)c(C(=O)C(=O)Nc2ccc3c(c2)OC[C@H]2CN(c4ncc(F)cn4)CCN32)n1C ... N
Cc1cc(-c2ccccc2)c(C(=O)C(=O)Nc2cc(F)c3c(c2)OC[C@H]2CN(c4ncc(F)cn4)CCN32)n1C ... N
Cc1cc(-c2ccccc2)c(C(=O)C(=O)Nc2ccc(N3CCN(c4ncc(F)cn4)CC3)cc2)n1C [Example F901318, reference compound] ... N
Cc1cc(-c2ccccc2)c(C(=O)C(=O)Nc2ccc3c(c2)C[C@H]2CN(c4ncc(F)cn4)CCN32)n1C ... Y

Hello, I need to know if Cc1cc(-c2ccccc2)c(C(=O)C(=O)Nc2ccc3c(c2)CC2CN(c4ncc(F)cn4)CCN32)n1C (stereo not drawn) has measured AUC not below 20000 ng·h/mL. Thanks!
Y

====

- TEST: Pharmacokinetic test in SD rats, single oral administration
- Format: in vivo
- EXPERIMENTAL SETUP: SD, rat, plasma, po, 10 mg/kg, single oral administration 10 mg/kg, test compound mixed with F901318, plasma, read-out: Cmax
// reported Cmax per item
Enter your answer as a number in ng/mL; do not include the unit.

Sample records with Cmax:
Cc1cc(-c2ccccc2)c(C(=O)C(=O)Nc2ccc3c(c2)OCC2CN(c4ncc(F)cn4)CCN32)n1C (centres unmarked) ... 1420
Cc1cc(-c2ccccc2)c(C(=O)C(=O)Nc2cc(F)c3c(c2)OC[C@H]2CN(c4ncc(F)cn4)CCN32)n1C ... 1930
Cc1cc(-c2ccccc2)c(C(=O)C(=O)Nc2ccc3c(c2)CC2CN(c4ncc(F)cn4)CCN32)n1C (centres unmarked) ... 3860
Cc1cc(-c2ccccc2F)c(C(=O)C(=O)Nc2ccc3c(c2)OC[C@H]2CN(c4ncc(F)cn4)CCN32)n1C ... 1520

Proceed to the following item.
molecule Cc1cc(-c2ccccc2)c(C(=O)C(=O)Nc2ccc3c(c2)C[C@H]2CN(c4ncc(F)cn4)CCN32)n1C , Cmax observed: 3490
